Tested on: MS2 coat protein
Experiment: apparent KD of MS2 coat protein; designed switch direction (-1 OFF switch, 1 ON switch): 1; higher = weaker reporter binding
Conditions: Eterna round: R95; input ligand: FMN 200 uM
Catalogue of apparent KD of MS2 coat protein values

SEQUENCE_CONTENT: AGUCCAGCCUGAGCUGGACAAAAGCAUGUACAUGAGGAUCACCCAUGUUCAUGUACAAGCUUUUUGCUCGUCUAAAU [Mat - hsa-mir-208a - Mod of JL - 46] (puzzle: Sensor for hsa-mir-208a)
apparent KD of MS2 coat protein (nM): 449
--
SEQUENCE_CONTENT: GACAAUCUAUCUCAGGAUAUCAUGUCAAAGACAUGAGGAUCACCCAUGUACCAGGAAACUGGUUAUGAGAAGGGAGAUAGAUUGG [Mat - Same State 2 - Mod - D27] (puzzle: Same State 2)
apparent KD of MS2 coat protein (nM): 179
--
SEQUENCE_CONTENT: GAAGGAUGAGCGUAGGAUAUAGGAGGAGUGACAUGAGGAUCACCCAUGUGGUAGGAGGGAGGGUACUAGAAGGACGAGGAAGAGG [JR_SS2_Sub069] (puzzle: Same State 2)
apparent KD of MS2 coat protein (nM): 216
--
SEQUENCE_CONTENT: GGAGAACAUGAGGAUCACCCAUGUAGGCGUUAGCUAGGAUAUGCGGGAAGGAAGAGAGAAGCAGAAGGAGUAGGUA [JR_SS1_Sub031] (puzzle: Same State 1)
apparent KD of MS2 coat protein (nM): 39.6
--
SEQUENCE_CONTENT: GGUCCAGCCUGAGCUGGACAAAAGCAUGUACAUGAGGAUCACCCAUGUCAUGUACAAGUUUUUUGCUCGUCUUAAAA [JL mod - D87 - 12] (puzzle: Sensor for hsa-mir-208a)
apparent KD of MS2 coat protein (nM): 35.3
--
SEQUENCE_CONTENT: UUUAGUUGCGGGCAGGAUAUGUAUUAAAAUACAUGAGGAUCACCCAUGUGCGGGUAUAACACCCGAUAGAAGGGCCAAUCGCGAC [Laonerce - 11] (puzzle: Same State 2)
apparent KD of MS2 coat protein (nM): 20.9
--
SEQUENCE_CONTENT: AUAAAACAUGAGGAUCACCCAUGUCAACAAAGUCGAGGAUAUGGGCAAAUAUAAUAAGAACCAGAAGGCGAAUAAU [salish99_ss1_r3_023] (puzzle: Same State 1)
apparent KD of MS2 coat protein (nM): 36.1

###

Test system: MS2 coat protein
Test: apparent KD of MS2 coat protein, switch OFF state (with FMN for OFF switches, without FMN for ON switches); designed switch direction (-1 OFF switch, 1 ON switch): 1; higher = weaker reporter binding
Conditions: FMN input: 0 or 200 uM; Eterna round: R93 (includes R88 designs)
QUANTITY_KIND: apparent KD of MS2 coat protein

SEQUENCE_CONTENT: UAUCAUUACACGAAGGAUAUCGAUAAUUGAACAUGAGGAUCACCCAUGUGACAUAUCUUACAGUUCGAGAAGGUCGAGGGUGAAG [JR_SS002_Sub706]
VAL: 52 nM

SEQUENCE_CONTENT: GAAAAACAUGAGGAUCACCCAUGUAGAAAUAUGGGAGGAUAUACAAAGACGAAAGUCAAAGUAGAAGGCCCAAAAG [Starry Same State 1.1 (mat747 round 1 mod)]
VAL: 38.8 nM

SEQUENCE_CONTENT: GAGAAACAUGAGGAUCACCCAUGUAGAAAUAUGGGAGGAUAUACAAAGACGAGAGUCAAAGUAGAAGGCCUAGAAG [77%, Mat - Mod of Eli - With 3 more G's]
VAL: 53.6 nM

###

System: K4 kissing-loop RNA reporter
Assay: apparent KD of K4 kissing-loop reporter; higher = weaker reporter binding
Settings: Eterna round: R107; input ligand: arginine 13.2 mM
Tick satisfied if apparent KD of K4 kissing-loop reporter is 200 nM or greater. Tick not satisfied if apparent KD of K4 kissing-loop reporter is less than 200 nM.

SEQUENCE_CONTENT: CUUGAUGUGUCGGCCGCCACUGGUAUAGGCGGACUAUAACGACAUGAGUGAUGUUCAUGUUCGUCUAGGACCGGGACACAUUGUA [Tryp B SS t4]
LABEL_CLASS: not satisfied

SEQUENCE_CONTENT: AGAUGACAGGGAGGAUAUCCUAAUAUGGGUGAUGUUAGCGAUGUUGAAGGUGUAGUGAUGUUAUGCGGAGAAGGCCCUGUUGUUU [BDazzled - #23 - Exc. FMN B]
LABEL_CLASS: not satisfied

SEQUENCE_CONTENT: GCAACAUUGGUAGGAUAUCAUUCUGAGUGAUGUUCAGGGUUCAGCUAACGAAAGUUAGUUGUACCAUGAGAAGGGCUAAUGUUGC [Omei KL FMN B SS A v5]
LABEL_CLASS: satisfied

SEQUENCE_CONTENT: CGUCGGUAGUGAUGUUGCCACGACGCUUUUAAGGAUAUAAGCUAAGUUAGAAGGUAAGAGAGUCAGCCCGGUGGCCUUAGAGUAG [theeternabot_exclusion_KL_FMN_A_17]
LABEL_CLASS: not satisfied

SEQUENCE_CONTENT: UUCUACGUGCAAGGAUAUCCAUACGCUGCUAAGCGGGUAGCGAUAUAUGGAGUGAUGUUCCAUGUAGGAGAAGGUGCACUGUCCU [Rieser]
LABEL_CLASS: satisfied

SEQUENCE_CONTENT: AUUAAUUUCAGAGGAUAUCGUAAUUUUAUUUUAUUUUUUCAUUUAUGCAGUGAUGUUGCAUUUAUUCGAGAAGGCUGAUUUAUAA [JR_SSFMNB_Sub021]
LABEL_CLASS: not satisfied

###

Tested on: K4 kissing-loop RNA reporter
Experiment: apparent KD of K4 kissing-loop reporter; higher = weaker reporter binding
Conditions: Eterna round: R107; input ligand: none

SEQUENCE_CONTENT: AGGUGAGACUGAAGGAGCGAUCGCGCUAGUGAUGUUGGCGAGCAUGACAAAGUCAUGCACGAUCAGGUAGGUCGCAGUCUUACUC [Omei KL Arginine B SS B v1]
apparent KD of K4 kissing-loop reporter / nM: 137
--
SEQUENCE_CONTENT: AUGGCACCUGCGGCCGCCACUCACUCCGGGCUGCUGGCCAGUGAUGUUGGUACGGCUGCCGGUUAGAGGACCGGGCAGGAGCUAA [Rienisdite]
apparent KD of K4 kissing-loop reporter / nM: 107
--
SEQUENCE_CONTENT: AACUGUCAAGGCCAACAUUACUGAGGUGAUACCAGCAUCGAAAGAUGCCCUUGGCAGCACCAACUUGCAGUGAUGUUGCAAGUAA [BrourdMod 13 - Jieux - Exclusion - Theophylline A]
apparent KD of K4 kissing-loop reporter / nM: 234
--
SEQUENCE_CONTENT: GGAUAGGAUAGAGGAUAUGGAAAACACAGAAAUGACUUGUUGUGUUUAUCCAUAGGGAGUGAUGUUCCAGAAGGCUGUCCUAUCG [MatMod 21 - Jieux - Exclusion - FMN B]
apparent KD of K4 kissing-loop reporter / nM: 194

###

System: K4 kissing-loop RNA reporter;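 note: bound reporter read as fluorescence of individual clusters on recovered sequencing chips by microscopy, with normalized cluster intensities fitted with a binding model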
Assay: apparent KD of K4 kissing-loop reporter; higher = weaker reporter binding
Conditions: Eterna round: R107; input ligand: FMN 200 uM
The following ranges of apparent KD of K4 kissing-loop reporter define the classes used here: lower bin (below 200 nM), middle bin (200 nM to below 400 nM), upper bin (400 nM or more)

SEQUENCE_CONTENT: ACUAUCAUUACGCAUGGAGUGAUGUUUCAGCGAGGACCGGUACGGCCGCCACUCGUUACGUGGUUAGAGCCAAUGUUCGAGAAGC [theeternabot_exclusion_KL_Trp_A_39]
LABEL_CLASS: upper bin

SEQUENCE_CONTENT: AGAUCUGUAACAGAUACCAGAGGACGAUGAUCGGACAGUGAUGUUAUCUGUCAGUCGUCGCUCCCUUGGCAGCUGUUACAGAUCA [Omei KL Theo B SS B v3]
LABEL_CLASS: lower bin

SEQUENCE_CONTENT: AUGGCACCUGCGGCCGCCACUCACUCCGGGCUGCUGGCCAGUGAUGUUGGUACGGCUGCCGGUUAGAGGACCGGGCAGGAGCUAA [Rienisdite]
LABEL_CLASS: lower bin

SEQUENCE_CONTENT: AAGAAUAAUCUUGCAGUGAUGUUGCAAGAUACCAGCAUCGAAAGAUGCCCUUGGCAGCUUGAAAACAUCACUAUCAAGCUGCAUA [Design2]
LABEL_CLASS: upper bin

SEQUENCE_CONTENT: UAGUGGUAGACCAGAUCUACCACUAGGGAUACCAGCCUCGGUCGAGGCCCUUGGCAGCCCAGCGGGUCCAGUGAUGUUGGAUGUC [Raanza]
LABEL_CLASS: middle bin

SEQUENCE_CONTENT: AGUAGUUGGGCGGCCGCCACUGGAACAGCUUUGCCAAAGGCAGAGCACUAGAGUGAUGUUCUAGCUAGGACCGGGUCCAACUACA [whbob_SS_Tryp_B_t17]
LABEL_CLASS: upper bin

SEQUENCE_CONTENT: AGACUACCACACUGUCAAUAGACAGUGAACUCGGAUAUGCUGAUAAGCAGAAGGAGUGAUGUUCCUAGGUAGUCAAUAAAAUAAU [FmnAX 13 C32]
LABEL_CLASS: lower bin

SEQUENCE_CONTENT: GGUGGCUUACAAAGCUCAGUGAUGUUGAGCCGAGGACCGGUACGGCCGCCACUCGUUUGCCAUUCACUACAGUUACAAGCACUAG [theeternabot_exclusion_KL_Trp_A_2]
LABEL_CLASS: middle bin

SEQUENCE_CONTENT: UGUCAUUGGUCGGCCGCCACUAAAUAAAAGAGUGAUGUUCUUAAGACGGAUCGAAAGAUCUGUCAUAGGACCGGGACCGAUGACU [TrypBS 21 #SwitchBubble #StaticStem]
LABEL_CLASS: upper bin

SEQUENCE_CONTENT: AUGCGCGCGGCGGCCGCCACUCGCAUGAGAGUGAUGUUCUCGCCGGGCCCGCAAGGGCCCGGUGUGAGGACCGGGCCGGGCUGCG [#2 Same State - Tryptophan B Attempt #18 (HarryS)]
LABEL_CLASS: upper bin

SEQUENCE_CONTENT: AUGUACACGAUAGUGUACUCCUAGUGAUGUUAGGAUAUGCAGAUAUGCAGAAGGGACAAGUCAUCUGACAAUAGUCGGAUGACAA [FmnAX 10 #OpenEnded #K4Early]
LABEL_CLASS: lower bin

SEQUENCE_CONTENT: CGAGUCCUGAGGAGUGAUGUUCCUCGGCCACGAGGACCGGUACGGCCGCCACUCGUUACUCGAGCUUAGUAGCUAGCACUAAGCC [Zaussora]
LABEL_CLASS: lower bin

SEQUENCE_CONTENT: UCACAAGUUAACUAGUGAUGUUAGUUAGUACGAGGACCGGUACGGCCGCCACUCGAAAAGUGGUUUUACGGACUUUUGGGCAGGC [theeternabot_sameState_KL_Trp_A_17]
LABEL_CLASS: middle bin

SEQUENCE_CONTENT: CCGUGGAGUGAUGUUCCACGUAAUACGGAUACCAGCUUUGCCAAAGGCCCUUGGCAGCCGCACGUUGCAGUGAUGUUGUGGCGCG [Same State Theophylline A G8]
LABEL_CLASS: lower bin

SEQUENCE_CONTENT: GUCCAUGUCCUCAUUCGUGCACUGGACACCAAGGAUAUGUUUAUGGACAGAAGGUGGUUGGGUCAGUGAUGUUGAUAUAAUUAGU [theeternabot_exclusion_KL_FMN_A_24]
LABEL_CLASS: middle bin

SEQUENCE_CONTENT: AGAGUCAGACAAAAGUCUGGCUCAGCCGAAGGAGCGUCCGUAAGGACAGGUAGGUCGCGGCUAUUUGAGUGAUGUUUGGGUUCCU [KL-SSArg-A20]
LABEL_CLASS: middle bin

SEQUENCE_CONTENT: AAGCAGUCACGCGAAGCCAUCGAAGAUGGACGAGGACCGGUACGGCCGCCACUCGGAGUGAUGUUCCGAAGACUGCAAAAUAAAA
LABEL_CLASS: upper bin

SEQUENCE_CONTENT: GAGAUAGAGGCGGCCGCCACUAGUGAUGUUAGUGAUGUUAGAUAGAGAAUAUAACAGGGAUUAGAUAGGACCGGGCCAGAUGGAG ['lljullin]
LABEL_CLASS: lower bin

Data credit: the supplement of paper PMC9170038
